read-out: Human Leukocyte Antigen - DR isotype (HLADR), HLA-DRA (gene 3122); test: BSK_CASM3C_HLADR: BioMAP Diversity Plus: CASM3C Assay for Human Leukocyte Antigen - DR isotype (HLADR) Biomarker Activity (AID 2283043); conditions: primary human coronary artery smooth muscle cells; actives raise or lower the signal;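 further: cell-surface HLA-DR protein level quantified by ELISA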
Active and inactive are the calls of the source. How the source made its calls: active means hit-call score of the fitted dose curve at least 0.9, where 1 is the maximum; inactive means score below 0.9.
Respond using exactly one of the listed classes: Yes = active, No = inactive

c1ccc(CCc2ccccc2)cc1    Yes

Ask | Could you check what this test reported for CCCCOC(=O)CCCCCCCC(=O)OCCCC ?
Reply | No

Ask | Could you check what this test reported for CC(C)(N=C=O)c1cccc(C(C)(C)N=C=O)c1 ?
Reply | No

Ask | Could you check what this test reported for CC(C)(C)CC(C)(C)c1ccc(OCCOCC[N+](C)(C)Cc2ccccc2)cc1 ?
Reply | Yes

Ask | Could you check what this test reported for CCCCCCCCCCCCCCCC(=O)OC/C=C(C)/C=C/C=C(C)/C=C/C1=C(C)CCCC1(C)C ?
Reply | No

Ask | Could you check what this test reported for CCCCCCC(CO)CCCC (stereo unspecified) ?
Reply | No

Ask | Could you check what this test reported for O=C1OC2(c3ccccc31)c1ccc(O)c(Br)c1Oc1c2ccc(O)c1Br ?
Reply | No

Ask | Could you check what this test reported for C1=CC2C3C=CC(C3)C2C1 (stereo unspecified) ?
Reply | No

Ask | Could you check what this test reported for COc1cc(Cl)c(OC)cc1N ?
Reply | No

Ask | Could you check what this test reported for COc1ccc(CCN2CCC(Nc3nc4ccccc4n3Cc3ccc(F)cc3)CC2)cc1 ?
Reply | No

Ask | Could you check what this test reported for CC=Cc1ccc(OCC)c(O)c1 ?
Reply | No
